These measurements were taken from patent US8338637B2.

Target: EP2 (Homo sapiens)
Sequence (P43116 whole entry): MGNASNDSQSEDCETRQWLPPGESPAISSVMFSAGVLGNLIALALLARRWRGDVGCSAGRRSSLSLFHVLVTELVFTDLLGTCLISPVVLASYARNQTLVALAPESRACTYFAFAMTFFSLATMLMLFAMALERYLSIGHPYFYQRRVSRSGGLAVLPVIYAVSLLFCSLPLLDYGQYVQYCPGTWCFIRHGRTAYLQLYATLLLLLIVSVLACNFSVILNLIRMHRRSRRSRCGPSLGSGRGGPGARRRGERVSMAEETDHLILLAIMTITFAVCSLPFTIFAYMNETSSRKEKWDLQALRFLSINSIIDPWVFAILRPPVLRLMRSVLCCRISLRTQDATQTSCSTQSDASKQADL
Test: Competition binding, [3H]PGE2, HEK 293 cells expressing human EP2 receptors
Conditions: [3H]PGE2 competition
Entries and their Ki
Write the answer as a number in µM, unit excluded.

# MOLECULE, NUMERIC_VALUE
data = [
    ("O=C(O)c1ccc(CCC[C@H]2CCC(=O)[C@@H]2COc2cc(Cl)cc(CO)c2)s1", 0.3),
]

Attention now turns to another entry.
**Query** // query Ki value for entry O=C(O)c1ccc(CCC[C@H]2C=CC(=O)[C@@H]2COc2cc(Cl)cc(CO)c2)s1
**Result** 0.201

====

Entries and their pEC50
Molecular target: EP2 (Homo sapiens)
Assay: cAMP assay, HEK-EBNA cells expressing EP2
Friendly reminder that pEC50 comes from taking -log10 of the concentration in mol/L.

# MOLECULE, ASSAYED_SYSTEM, NUMERIC_VALUE
data = [
    ("O=C(O)c1ccc(CCC[C@H]2CCC(=O)[C@@H]2COc2cc(Cl)cc(CO)c2)s1", "EP2 (Homo sapiens)", 6.34),
]

**Query** // query pEC50 value for entry O=C(O)c1ccc(CCC[C@H]2C=CC(=O)[C@@H]2COc2cc(Cl)cc(CO)c2)s1
**Result** 8.06
